For each of the molecules below, state its growth.
System: MCF7 breast
METHOD: NCI-60 one-dose screen, 48 h (100 = growth as untreated, 0 = no growth, -100 = all killed)
TEST CONDITIONS: 10 µM unless noted
The panel holds about 83,000 compounds, 20% with a hit somewhere; the sample as a whole holds those more often.
Give bare numbers, in %.

Solved cases below.
stdin: Please look up its growth: `O=C1Cc2ccccc2C(=O)O1`
stdout: 102

stdin: Then this molecule: `CC(=O)Nc1ccc(NC(C)=O)c2c1C(=O)c1ccccc1C2=O`
stdout: 87.3

stdin: Next: `Cn1cnc2nc(Cl)nc(Cl)c21`
stdout: 16.7

stdin: Lookup `S=C(Nc1ccccc1)N1CCCCC1`
stdout: 93.2

stdin: Queued: `O=C(O)/C=C/C(=O)NCc1ccccc1`
stdout: 91.9

stdin: And `O=C(CCl)Nc1ccc2c(c1)C(=O)c1ccc(NC(=O)CCl)cc1C2=O` ?
stdout: -60.7

stdin: And the next one, `O=S(=O)(O)c1cc(O)c2c(N=Cc3ccccc3O)c(S(=O)(=O)O)ccc2c1` ?
stdout: 104

stdin: Another molecule: `Cc1nc2c(ccc3ccccc32)s1`
stdout: 99.2

Look at each molecule and report its growth.
1. S=c1[nH]ccn1-c1ccccc1Cl
2. O/N=C/c1ccc(O)cc1O
3. COc1cccc(Sc2ccc([N+](=O)[O-])c3no[n+]([O-])c23)c1
4. CC(=O)c1cc2c(cc1F)C(C)(C)CCC2(C)C
5. COCCCNC(=O)c1nnn2c1nc(N)c1cc(Cl)ccc12
6. O=[N+]([O-])c1cccc2nsnc12
7. CCCCN(CCCC)CCCO
8. COc1ccc(C(=O)C(Br)C(Br)C(=O)O)cc1 (stereo not drawn)

stdout:
1. 99.5
2. 98.6
3. 39
4. 101
5. 73.4
6. 93.5
7. 96.7
8. 91.1

For every item below, please supply its growth.
1. CC1(C)/C(=C\CO)C2CCC1C2 (stereo not drawn)
2. C=CCCCCCCCCCOC(C)=O

stdout:
[104, 96.2]

Required: growth, one value per molecule below.
1. Cc1c(O)cnc2nn(-c3ccccc3)c(=N)n12
2. CC1CCCC(CC(N)=O)CC1 (stereo not drawn)

stdout:
1. 97.5
2. 103

Return reported growth values for all items listed beneath this line.
1. CC1CCC2C(C)(C)C3CC12CC1OC13C (stereo not drawn)
2. O=C(O)c1cc([N+](=O)[O-])ccc1Cl
3. CCOC(=O)c1cc2cccc(OC)c2oc1=O

stdout:
1: 102; 2: 88; 3: 105

Each molecule below has a reported value. Please supply its growth.
1. COC1=CC(=O)c2nc(Cl)ccc2C1=O
2. O=S(=O)(O)c1ccc(O)c2ccccc12
3. OCc1cccc2ccccc12
4. Cc1ccc(Cl)cc1N1C(=O)CC(Sc2ccccc2N)C1=O (stereo not drawn)

stdout:
-56.8
94.3
96.3
90.2

List reported growth for each of these molecules:
1. CCCC[P+](c1ccccc1)(c1ccccc1)c1ccccc1
2. CC(=O)OCC(=O)[C@@]1(O)CC[C@H]2[C@@H]3CC[C@@H]4C[C@H](O)CC[C@]4(C)[C@H]3C(=O)C[C@@]21C

stdout:
24.1
108

Please state growth for every molecule in the list that follows.
1. CC1SC(N)=NC1=O (stereo not drawn)
2. CC1=NN(c2ccccc2)C(=O)/C1=C\N1CC(=O)NC1=S
3. CCOC(=O)c1[nH]c(C)c(C(C)=O)c1C

stdout:
[103, 103, 87.1]

Please supply growth for each of the following items, keeping them in order.
1. C/C(=N\NC(=O)c1ccccc1N)c1ccccc1O
2. CN(C)Cc1cc(C(C)(C)CC(C)(C)C)ccc1O
3. COc1cc(/C=C/C(=O)c2ccccc2)cc(OC)c1OC
4. CCO/C=C1\SC(=S)N(c2cccc(C)c2)C1=O
5. Cc1ccncc1C(N)=O
6. Oc1ccccc1-c1nnco1
7. CC(=O)OCC1CCCO1 (stereo not drawn)

stdout:
[5.19, 95.4, 9.65, 90.5, 96, 102, 94.2]
